Target: T1, human ferroportin 1 (human, UniProt Q9NP59 1-571)
T1 construct: also called human FPN1; FPN1
T1 sequence: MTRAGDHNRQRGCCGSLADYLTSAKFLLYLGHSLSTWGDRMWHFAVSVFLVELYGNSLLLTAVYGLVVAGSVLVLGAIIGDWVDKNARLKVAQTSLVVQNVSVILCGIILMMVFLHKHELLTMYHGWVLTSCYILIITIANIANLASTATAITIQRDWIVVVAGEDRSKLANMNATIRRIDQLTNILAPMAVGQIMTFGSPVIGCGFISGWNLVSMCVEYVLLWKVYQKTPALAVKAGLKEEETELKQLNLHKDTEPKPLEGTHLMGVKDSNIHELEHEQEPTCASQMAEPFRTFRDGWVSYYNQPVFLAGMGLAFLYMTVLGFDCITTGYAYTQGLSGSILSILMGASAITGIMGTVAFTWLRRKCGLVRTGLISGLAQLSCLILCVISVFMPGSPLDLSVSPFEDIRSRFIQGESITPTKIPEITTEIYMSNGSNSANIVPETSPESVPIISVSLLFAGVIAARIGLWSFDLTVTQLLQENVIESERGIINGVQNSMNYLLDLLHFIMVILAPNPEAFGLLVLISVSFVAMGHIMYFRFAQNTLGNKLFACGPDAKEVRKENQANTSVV
Experiment: inhibition of binding of 30 nM biotinylated hepcidin to FPN/293 cells, ELISA of lysate; antibody at 31.25 nM; mean
Field: % Inhibition. Provide a value for each of the binders that follow.
Entry format: amount then unit.

Requested read-out: % Inhibition. Entry: Mab 4A10-3 (antibody, human IgG4 S228P, kappa, F234A L235A, V domains shown) VH: QVQLVQSGAEVKKPGSSVKVSCKASGYAFTSFLIEWVRQAPGQGLEWMGTSNPRTGGRKYKEKFRGRVTITADKSTSTAYMELSSLRSEDTAVYYCAREFFDYWGQGTTVTVSS VL: DIQMTQSPSSLSASVGDRVTITCRASKSISKYTAWYQQKPGKAPKLLIYAGSKLHWGVPSRFSGSGSGTDFTLTISSLQPEDFATYYCQQHNEYPYTFGGGTKVEIKR 13.4%

Requested read-out: % Inhibition. Entry: Mab 3D8 (antibody, human IgG4 S228P, kappa, F234A L235A, V domains shown, Humanized form of mouse 1G9 with human heavy chain framework VH1-69 and light chain framework O2; also called human 3D8) VH: QVQLVQSGAEVKKPGSSVKVSCKASGYAFTSFLIEWVRQAPGQGLEWMGTSNPRTGGTKYKEKFRGRVTITADKSTSTAYMELSSLRSEDTAVYYCAREFFDYWGQGTTVTVSS VL: DIQMTQSPSSLSASVGDRVTITCRASKSISKYTAWYQQKPGKAPKLLIYAGSKLHSGVPSRFSGSGSGTDFTLTISSLQPEDFATYYCQQHNEYPYTFGGGTKVEIKR 4%

Requested read-out: % Inhibition. Entry: Mab L2.2-4 (antibody, human IgG4 S228P, kappa, F234A L235A, V domains shown) VH: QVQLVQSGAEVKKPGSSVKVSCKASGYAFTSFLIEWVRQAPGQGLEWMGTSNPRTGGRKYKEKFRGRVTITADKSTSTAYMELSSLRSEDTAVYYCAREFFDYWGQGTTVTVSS VL: DIQMTQSPSSLSASVGDRVTITCRASKSISKYTAWYQQKPGKAPKLLIYAGSKLRSGVPSRFSGSGSGTDFTLTISSLQPEDFATYYCQQHNEYPYTFGGGTKVEIKR 27.5%
